REPORTED PROPERTY: melting point

{"COMPOUND": "Cc1cc(C)nc(N(C(=O)n2cncn2)c2ccccc2)n1", "READING": "157 °C"}
{"COMPOUND": "Cc1[nH]c(C(=O)Nc2ccc3[nH]ccc3c2)c(C)c1-c1nc2ccc(C(=O)c3ccccc3)cc2[nH]1", "READING": "167 to 169 °C"}
{"COMPOUND": "O=C(O)CCCC1C(=O)Nc2ccccc21 (stereo unspecified)", "READING": "79 to 80 °C"}
{"COMPOUND": "CC(C)C[C@H](NC(=O)N1CCCCCC1)C(=O)N[C@H](Cc1ccc(OCc2ccccc2)cc1)C(=O)OC(C)(C)C", "READING": "38 to 40 °C"}
{"COMPOUND": "Cc1c(S(=O)(=O)Nc2ccc(CO)cc2S(C)(=O)=O)sc2ccc(F)cc12", "READING": "120 to 121 °C"}
{"COMPOUND": "COC(=O)c1ccc(O)c(I)c1", "READING": "145 to 146 °C"}
{"COMPOUND": "COc1cc(N2CCC(=O)CC2)ncn1", "READING": "111 to 114 °C"}
{"COMPOUND": "Nc1c2c(cc3c1CCC3)CCC2", "READING": "94.5 to 96.6 °C"}
{"COMPOUND": "Nc1ccc(Sc2ccc(Cl)cc2)nc1", "READING": "55 to 57 °C"}
{"COMPOUND": "Cc1nc(C(C)O)c2n1-c1ccc(Cl)cc1C(c1ccccc1Cl)=NC2 (stereo unspecified)", "READING": "197 to 199 °C"}
{"COMPOUND": "Cc1cc(Oc2ccc(Cl)c(C(F)(F)F)c2)ncc1N", "READING": "105 to 107 °C"}
{"COMPOUND": "C=CC(O)(c1ccc(Cl)cc1)c1cccnc1 (stereo unspecified)", "READING": "82.5 to 84 °C"}
{"COMPOUND": "Cc1nc2ncnn2c(N2CCC(C)CC2)c1-c1ccc(F)cc1Cl", "READING": "236 °C"}
{"COMPOUND": "O=S(=O)(C(=CNc1ccccn1)c1ccccc1)c1ccccc1", "READING": "159 to 160 °C"}
{"COMPOUND": "N#Cc1cc([N+](=O)[O-])cc(O)c1O", "READING": "186 to 188 °C"}
{"COMPOUND": "CC1(C)Cc2ccc(C#N)cc2N(C(=O)Nc2cccnc2)C1", "READING": "164 to 166 °C"}
